molecular target: Voltage-gated inwardly rectifying potassium channel KCNH2 (Homo sapiens, UniProt Q12809)
Sequence (Q12809 whole entry): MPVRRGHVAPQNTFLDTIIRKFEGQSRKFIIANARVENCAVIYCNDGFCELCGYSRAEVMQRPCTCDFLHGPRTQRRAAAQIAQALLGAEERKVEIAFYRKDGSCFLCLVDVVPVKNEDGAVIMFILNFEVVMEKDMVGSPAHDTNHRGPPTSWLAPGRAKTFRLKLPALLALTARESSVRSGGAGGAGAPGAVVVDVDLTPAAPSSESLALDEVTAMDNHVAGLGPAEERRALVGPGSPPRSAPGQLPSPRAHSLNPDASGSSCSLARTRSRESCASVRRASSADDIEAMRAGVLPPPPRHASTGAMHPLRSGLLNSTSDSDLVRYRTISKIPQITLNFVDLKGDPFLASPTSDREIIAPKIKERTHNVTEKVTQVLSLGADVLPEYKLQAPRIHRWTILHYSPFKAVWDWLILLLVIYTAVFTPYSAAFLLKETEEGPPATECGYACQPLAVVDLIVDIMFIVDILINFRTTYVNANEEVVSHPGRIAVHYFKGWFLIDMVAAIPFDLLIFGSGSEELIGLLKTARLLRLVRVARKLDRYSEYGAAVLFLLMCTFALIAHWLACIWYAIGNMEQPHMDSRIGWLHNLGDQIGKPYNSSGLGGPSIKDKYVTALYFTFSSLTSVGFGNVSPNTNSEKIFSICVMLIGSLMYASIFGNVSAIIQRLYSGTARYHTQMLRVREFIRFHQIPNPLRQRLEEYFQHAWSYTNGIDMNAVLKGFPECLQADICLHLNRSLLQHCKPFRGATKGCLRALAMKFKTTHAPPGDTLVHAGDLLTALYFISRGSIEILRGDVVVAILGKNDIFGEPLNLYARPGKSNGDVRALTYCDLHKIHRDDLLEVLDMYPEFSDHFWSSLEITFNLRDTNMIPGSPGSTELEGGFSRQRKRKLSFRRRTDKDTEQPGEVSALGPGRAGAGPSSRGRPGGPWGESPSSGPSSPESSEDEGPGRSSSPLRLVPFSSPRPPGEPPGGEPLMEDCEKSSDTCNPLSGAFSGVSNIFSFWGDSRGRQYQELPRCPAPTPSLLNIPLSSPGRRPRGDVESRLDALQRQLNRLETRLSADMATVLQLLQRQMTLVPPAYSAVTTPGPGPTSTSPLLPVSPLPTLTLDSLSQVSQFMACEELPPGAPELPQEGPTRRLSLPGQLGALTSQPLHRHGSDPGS
METRIC: IC50
Kindly format the answer as number then unit.

Problem: Notebook: pull reported IC50 for Voltage-gated inwardly rectifying potassium channel KCNH2 (Homo sapiens, UniProt Q12809), entry CCn1c(-c2cc(N3CCN(C)CC3)cnc2[C@H](C)OC)c2c3cc(ccc31)-c1csc(n1)C[C@H](NC(=O)[C@H]1C[C@@H]1C)C(=O)N1CCC[C@H](N1)C(=O)OCC(C)(C)C2
Solution: 8.9 µM

* * *

assay: Oral bioavailability in male Beagle dog at 5 mg/kg measured after 24 hrs by LC-MS/MS analysis; format: ADME, organism-based, Canis lupus familiaris; conditions: in vivo
METRIC: bioavailability
Kindly format the answer as number then unit.

Problem: Param item = CCn1c(-c2cc(N3CCN(C)CC3)cnc2[C@H](C)OC)c2c3cc(ccc31)-c1csc(n1)C[C@H](NC(=O)[C@H]1C[C@@H]1C)C(=O)N1CCC[C@H](N1)C(=O)OCC(C)(C)C2 ; retrieve measured bioavailability.
Solution: 33%
